Cited source: patent US20260242735A1

# Experimental System: human CD33 F21A (human, UniProt P20138 18-364)
# Sequence (P20138 18-364 F21A limits assumed): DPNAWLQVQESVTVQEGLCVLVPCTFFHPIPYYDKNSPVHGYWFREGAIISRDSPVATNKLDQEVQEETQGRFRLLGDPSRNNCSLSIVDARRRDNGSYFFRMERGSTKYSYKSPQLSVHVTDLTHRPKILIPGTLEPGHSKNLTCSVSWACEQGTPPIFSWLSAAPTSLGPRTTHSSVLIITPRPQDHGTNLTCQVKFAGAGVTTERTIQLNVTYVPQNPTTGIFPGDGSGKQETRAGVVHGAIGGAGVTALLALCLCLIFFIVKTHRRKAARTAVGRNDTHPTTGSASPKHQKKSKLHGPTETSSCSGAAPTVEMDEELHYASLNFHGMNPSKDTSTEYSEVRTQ
# Assay Procedure: alanine scan, flow cytometry;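 note: HEK293-T cells transiently expressing single-residue alanine mutants of CD33 (alanine swapped to serine), antibody binding read by fluorescence in duplicate, background-subtracted, expressed relative to wild-type CD33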
Metric Name: Mean % WT Binding (% WT)
The figure you give is taken to be in % WT; do not add the unit.

Asked: Read off the recorded Mean % WT Binding for Refmab #4 (antibody, V domains shown, Full-length format is human IgG1 Fc silent (PG-LALA); The alanine scan used IgG or Fab) VH: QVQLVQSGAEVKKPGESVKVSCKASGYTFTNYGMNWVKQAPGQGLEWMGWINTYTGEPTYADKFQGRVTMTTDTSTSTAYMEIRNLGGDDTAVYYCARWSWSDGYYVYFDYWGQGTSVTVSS VL: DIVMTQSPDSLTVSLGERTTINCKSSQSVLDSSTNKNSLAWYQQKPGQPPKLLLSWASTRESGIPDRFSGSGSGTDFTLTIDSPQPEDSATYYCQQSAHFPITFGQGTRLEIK
Given back: 43.6

Asked: Read off the recorded Mean % WT Binding for Refmab #1 (antibody, V domains shown, Full-length format is human IgG1 (Absolute Antibody Ab00283-10.0); The alanine scan used IgG or Fab; also called hP67.6) VH: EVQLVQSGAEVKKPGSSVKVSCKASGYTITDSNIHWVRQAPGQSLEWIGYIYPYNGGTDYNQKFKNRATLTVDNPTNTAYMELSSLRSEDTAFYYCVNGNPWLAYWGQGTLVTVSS VL: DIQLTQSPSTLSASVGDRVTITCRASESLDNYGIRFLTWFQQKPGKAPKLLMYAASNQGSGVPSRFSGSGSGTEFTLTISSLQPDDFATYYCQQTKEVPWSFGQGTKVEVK
Given back: 0.4

Asked: Read off the recorded Mean % WT Binding for Refmab #2 (antibody, V domains shown, Full-length format is human IgG1 Fc silent (PG-LALA); The alanine scan used IgG or Fab) VH: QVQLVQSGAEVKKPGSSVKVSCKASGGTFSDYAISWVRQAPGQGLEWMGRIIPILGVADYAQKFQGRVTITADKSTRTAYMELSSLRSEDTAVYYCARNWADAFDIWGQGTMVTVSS VL: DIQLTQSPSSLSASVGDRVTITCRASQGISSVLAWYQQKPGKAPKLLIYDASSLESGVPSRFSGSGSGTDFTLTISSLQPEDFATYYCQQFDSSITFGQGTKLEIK
Given back: 120

Asked: Read off the recorded Mean % WT Binding for Refmab #3 (antibody, V domains shown, Full-length format is human IgG1 Fc silent (PG-LALA); The alanine scan used IgG or Fab) VH: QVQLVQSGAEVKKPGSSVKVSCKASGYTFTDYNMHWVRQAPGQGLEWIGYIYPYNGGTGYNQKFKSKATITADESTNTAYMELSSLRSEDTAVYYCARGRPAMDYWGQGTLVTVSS VL: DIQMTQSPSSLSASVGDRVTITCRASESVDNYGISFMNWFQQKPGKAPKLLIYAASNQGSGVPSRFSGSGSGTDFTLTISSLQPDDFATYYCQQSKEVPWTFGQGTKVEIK
Given back: 13.6
